Molecular target: Proto-oncogene tyrosine-protein kinase Src (Homo sapiens, UniProt P12931)
Sequence (P12931 2-536 limits assumed): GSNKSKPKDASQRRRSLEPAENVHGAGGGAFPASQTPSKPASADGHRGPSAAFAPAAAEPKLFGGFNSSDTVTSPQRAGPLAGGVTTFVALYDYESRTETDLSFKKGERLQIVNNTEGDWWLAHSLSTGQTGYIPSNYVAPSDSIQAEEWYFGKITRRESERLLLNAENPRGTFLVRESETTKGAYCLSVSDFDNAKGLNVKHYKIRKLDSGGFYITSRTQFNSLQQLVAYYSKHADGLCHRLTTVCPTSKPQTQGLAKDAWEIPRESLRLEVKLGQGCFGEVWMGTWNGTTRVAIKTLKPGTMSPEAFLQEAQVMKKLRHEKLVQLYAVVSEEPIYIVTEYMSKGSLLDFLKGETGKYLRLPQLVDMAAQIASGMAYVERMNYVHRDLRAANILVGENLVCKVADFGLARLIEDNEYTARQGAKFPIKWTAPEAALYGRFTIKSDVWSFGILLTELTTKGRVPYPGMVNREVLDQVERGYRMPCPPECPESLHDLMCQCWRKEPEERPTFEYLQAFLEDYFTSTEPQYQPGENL
Assay: In vitro inhibition of c-src tyrosine kinase.
In this section, each of the compounds is paired with its reported IC50.
Write down the numeric answer in nM and omit the unit.

COc1cc2nccc(Nc3cc(OC)c(OC)c(OC)c3)c2cc1OC :: 200
CCOc1c(OC)cc(Nc2c(C#N)cnc3cc(OC)c(OC)cc23)cc1OC :: 63
COc1cc2ncnc(Nc3cc(OC)c(OC(C)C)c(OC)c3)c2cc1OC :: 830
COc1cc(Nc2c(C#N)cnc3cc(OC)c(OC)cc23)cc(OC)c1 :: 980
CCCCCCCCCCCCOc1c(OC)cc(Nc2c(C#N)cnc3cc(OC)c(OC)cc23)cc1OC :: 180

Fill in: IC50 of "COc1cc2ncc(C#N)c(Nc3cc(OC)c(OC)c(OC)c3C)c2cc1OC" is ___
470

Fill in: IC50 of "COc1cc2ncc(C#N)c(Nc3cc(OC)c(OC)c(OC)c3Br)c2cc1OC" is ___
170

Fill in: IC50 of "CCCCOc1c(OC)cc(Nc2ncnc3cc(OC)c(OC)cc23)cc1OC" is ___
490

Fill in: IC50 of "COc1cc2c(Nc3cc(OC)c(OC)c(OC)c3)c(C#N)cnc2cc1OCCCN1CCC(O)CC1" is ___
5.5

Entry source: ChEMBL document CHEMBL1132804
